- Study target: binding partner of C5A (XPA23)
- Assay info: Biacore
Entries annotated with measured fold difference in affinity vs original
Give your result in fold as a bare value.

Worked examples, 2 binders total:
Binder: C5A (XPA23) VH M57T (antibody, V domains shown) VH: EVQLLESGGGLVQPGGSLRLSCAASGFTFSKYFMFWVRQAPGKGLEWVSVISPSGGTTRYADSVKGRFTISRDNSKNTLYLQMNSLRAEDTAVYYCARVGYGGNSDYWGQGTLVTVSS VL: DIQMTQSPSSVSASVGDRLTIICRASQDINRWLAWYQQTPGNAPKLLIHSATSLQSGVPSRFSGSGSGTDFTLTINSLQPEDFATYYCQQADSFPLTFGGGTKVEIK
Units: fold
fold difference in affinity vs original: 0.06
//
Binder: C5A (XPA23) VH Y32G (antibody, V domains shown) VH: EVQLLESGGGLVQPGGSLRLSCAASGFTFSKGFMFWVRQAPGKGLEWVSVISPSGGMTRYADSVKGRFTISRDNSKNTLYLQMNSLRAEDTAVYYCARVGYGGNSDYWGQGTLVTVSS VL: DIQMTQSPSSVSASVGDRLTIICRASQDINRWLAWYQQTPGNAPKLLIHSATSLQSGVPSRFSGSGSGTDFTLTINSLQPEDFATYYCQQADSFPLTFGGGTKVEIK
Units: fold
fold difference in affinity vs original: 1

Next, consider the following binder.
Q) I would be grateful if you could share the reported fold difference in affinity vs original for C5A (XPA23) VH P53L (antibody, V domains shown) VH: EVQLLESGGGLVQPGGSLRLSCAASGFTFSKYFMFWVRQAPGKGLEWVSVISLSGGMTRYADSVKGRFTISRDNSKNTLYLQMNSLRAEDTAVYYCARVGYGGNSDYWGQGTLVTVSS VL: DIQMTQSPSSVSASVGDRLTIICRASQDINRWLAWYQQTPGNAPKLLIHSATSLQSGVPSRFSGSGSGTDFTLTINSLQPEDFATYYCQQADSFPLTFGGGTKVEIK .
A) 0.04
